Molecular target: RORγt (Homo sapiens, UniProt P51449)
Test: Cofactor recruitment test (Alpha Screen, biotinylated SRC-1 peptide)
Type: biochemical
Settings: test compound 1 μM; read-out: signal value inhibitory rate at test compound 1 μM
Overview of reported inhibition at 1 µM across a group of molecules:
ATTRIBUTE_MEASURED: inhibition at 1 µM

1. COCc1ccc2c(c1)CCN(C(=O)[C@H]1C[C@H](CC(=O)O)C1)[C@H]2C(=O)Nc1cc(F)c2c(c1)CCC2(C)C = 80%
2. COc1ccc2c(n1)CCN(C(=O)[C@H]1C[C@@H]1CC(=O)O)[C@H]2C(=O)Nc1cc(F)c2c(c1)CCC2(C)C = 54%
3. COc1ccc2c(n1)CCN(C(=O)[C@H]1C[C@@H](C(=O)OC)C1)[C@H]2C(=O)Nc1cc(F)c2c(c1)CCC2(C)C = 69%

====

Overview of reported inhibition at 1 µM across a group of molecules:
Target: RORγt (Homo sapiens)
Sequence (P51449 1-497 isoform P51449-2): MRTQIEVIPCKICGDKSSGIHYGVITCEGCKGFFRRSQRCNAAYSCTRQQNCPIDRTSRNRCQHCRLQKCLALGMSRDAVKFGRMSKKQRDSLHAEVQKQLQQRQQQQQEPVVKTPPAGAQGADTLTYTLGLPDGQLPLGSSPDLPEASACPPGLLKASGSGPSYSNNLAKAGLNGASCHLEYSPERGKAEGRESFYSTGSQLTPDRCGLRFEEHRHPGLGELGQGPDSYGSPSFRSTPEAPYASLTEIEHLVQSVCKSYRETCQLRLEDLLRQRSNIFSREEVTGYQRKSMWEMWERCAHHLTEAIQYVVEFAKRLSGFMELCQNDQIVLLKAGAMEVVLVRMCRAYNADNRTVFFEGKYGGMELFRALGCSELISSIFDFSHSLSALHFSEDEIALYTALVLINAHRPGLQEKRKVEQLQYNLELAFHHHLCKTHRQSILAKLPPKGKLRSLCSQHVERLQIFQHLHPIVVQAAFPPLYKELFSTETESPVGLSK
Experiment: RORγt binding test using fluorescent-labeled synthetic ligand (TR-FRET)
Settings: test compound 1 μM; read-out: binding inhibitory rate of fluorescent-labeled synthetic ligand to RORγt at test compound 1 μM
ATTRIBUTE_MEASURED: inhibition at 1 µM (%)

1) COC(=O)C[C@H]1C[C@@H](C(=O)N2CCc3nc(OC)ccc3[C@@H]2C(=O)Nc2cc(F)c3c(c2)CCC3(C)C)C1 [Example 45] = 101
2) COc1ccc2c(n1)CCN(C(=O)[C@H]1C[C@@H](C(=O)OCc3oc(=O)oc3C)C1)[C@H]2C(=O)Nc1cc(F)c2c(c1)CCC2(C)C [Example 44] = 102
3) CCOc1ccc2c(c1)CCN(C(=O)[C@H]1C[C@@H](CC(=O)O)C1)[C@H]2C(=O)Nc1cc(F)c(C(C)(C)COC)c(F)c1 [Example 17] = 101
4) COc1ccc2c(n1)CCN(C(=O)[C@H]1C[C@@H](C(=O)OCc3ccccc3)C1)[C@H]2C(=O)Nc1cc(F)c2c(c1)CCC2(C)C [Example 36] = 102
5) COCc1ccc2c(c1)CCN(C(=O)[C@H]1C[C@@H](CC(=O)O)C1)[C@H]2C(=O)Nc1cc(F)c2c(c1)CCC2(C)C [Example 19] = 101
6) CCOC(=O)C[C@H]1C[C@@H](C(=O)N2CCc3nc(OC)ccc3[C@@H]2C(=O)Nc2cc(F)c3c(c2)CCC3(C)C)C1 [Example 39] = 101
7) COCc1ccc2c(c1)CCN(C(=O)[C@H]1C[C@H](CC(=O)O)C1)[C@H]2C(=O)Nc1cc(F)c2c(c1)CCC2(C)C [Example 24] = 101
8) COc1ccc2c(n1)CCN(C(=O)[C@H]1C[C@@H](C(=O)OC)C1)[C@H]2C(=O)Nc1cc(F)c2c(c1)CCC2(C)C [Example 46] = 102
9) COCC(C)(C)c1c(F)cc(NC(=O)[C@H]2c3ccc(OC)cc3CCN2C(=O)[C@H]2C[C@@H](CC(=O)O)C2)cc1F [Example 35] = 102
10) COc1ccc2c(n1)CCN(C(=O)[C@H]1C[C@@H](CC(=O)OCc3oc(=O)oc3C)C1)[C@H]2C(=O)Nc1cc(F)c2c(c1)CCC2(C)C [Example 38] = 102
11) CCOCC(C)(C)c1c(F)cc(NC(=O)[C@H]2c3ccc(OCC)cc3CCN2C(=O)[C@H]2C[C@@H](CC(=O)O)C2)cc1F [Example 18] = 101
12) COc1ccc2c(n1)CCN(C(=O)[C@H]1C[C@@H]1CC(=O)O)[C@H]2C(=O)Nc1cc(F)c2c(c1)CCC2(C)C [Example 6] = 102
